For each record, write down the corresponding Hb concentration.
System: hemoglobin-haptoglobin complex
assay explanation: Stability of hemoglobin (as hemoglobin-haptoglobin complex) in samples preserved at 37° C. in preservation solution containing 1 unit/L haptoglobin, Hb measured by latex agglutination method (Examples 1 to 7)
Design: species or system human
condition summary: No feces; sugar 100 mmol/L, no phenylboronic acid; 37° C., 7 days
Give bare numbers, in µg/L.

INSERT INTO assay_data (compound_smiles, readout_unit, value_measured) VALUES
  ('O=C(CO)[C@@H](O)[C@H](O)[C@H](O)CO', 'µg/L', 215),
  ('OC[C@H]1O[C@@](CO)(O[C@H]2O[C@H](CO)[C@@H](O)[C@H](O)[C@H]2O)[C@@H](O)[C@@H]1O', 'µg/L', 228),
  ('OC[C@@H](O)[C@@H](O)[C@H](O)[C@H](O)CO', 'µg/L', 251),
  ('OC[C@H]1O[C@H](O[C@H]2O[C@H](CO)[C@@H](O)[C@H](O)[C@H]2O)[C@H](O)[C@@H](O)[C@@H]1O', 'µg/L', 229);

Continue with the compound presented below.
Given item OC[C@@H](O)[C@@H](O)[C@H](O)[C@@H](O)CO , the value recorded as its Hb concentration is 239
